test: Plasma concentration in mouse at 25 mg/kg, po measured after 6 hrs; assay type: ADME, organism-based
Measured endpoint: concentration at 6 h (ng/mL)
Numbers only, in ng/mL.

{"columns": ["Molecule smiles", "Uom", "concentration at 6 h"],
 "data": [
  ["COC(=O)N[C@H]1CCC[C@@H]1[C@](CN1CCC1)(c1cccc(F)c1)C1CCN(CC2CN(c3ccc(S(=O)(=O)C4CC4)cc3)C2)CC1", "ng/mL", 928]
]}

The record that follows has no concentration at 6 h shown yet.
Ask | // lookup concentration at 6 h for COC(=O)N[C@H]1CCC[C@@H]1[C@](CN1CCC1)(c1cccc(F)c1)C1CCN(CC2(OC)CN(c3ccc(S(=O)(=O)C4CC4)cc3)C2)CC1
Reply | 2200

###

So I've got a bunch of molecules here, and I need their IC50 values.
test system: MV4-11; test: Anti-proliferative activity against human MV4-11 cells harboring MLL/AF4 fusion protein assessed as cell growth inhibition measured after 4 days by Cell Titre Glo Luminescent Cell viability assay; assay type: functional, cell-based; settings: MV4-11, 96 h
Give bare numbers, in nM.

{"columns": ["Molecule smiles", "IC50 [nM]"],
 "data": [
  ["C=CC(=O)N1CCC(S(=O)(=O)c2ccc(N3CC(CN4CCC([C@@](CN5CCC5)(c5cccc(F)c5)[C@H]5CCC[C@@H]5NC(=O)OC)CC4)(OC)C3)cc2)CC1", 156],
  ["C=CC(=O)N1CCC[C@@H](S(=O)(=O)c2ccc(N3CC(CN4CCC([C@@](CN5CCC5)(c5cccc(F)c5)[C@H]5CCC[C@@H]5NC(=O)OC)CC4)(OC)C3)cc2)C1", 74],
  ["C=CC(=O)N1CC(S(=O)(=O)c2ccc(N3CC(CN4CCC([C@@](CN5CCC5)(c5cccc(F)c5)[C@H]5CCC[C@@H]5NC(=O)OC)CC4)(OC)C3)cc2)C1", 112],
  ["COC(=O)N[C@H]1CCC[C@@H]1[C@](CN)(c1cccc(F)c1)C1CCN(CC2CN(c3ccc(S(=O)(=O)C4CC4)cc3)C2)CC1", 192]
]}

Provide IC50 values for the following items, in order.
1. C=CC(=O)N1C[C@H]2C[C@@H]1CN2S(=O)(=O)c1ccc(N2CC(CN3CCC([C@@](CN4CCC4)(c4cccc(F)c4)[C@H]4CCC[C@@H]4NC(=O)OC)CC3)(OC)C2)cc1
2. COC(=O)N[C@H]1CCC[C@@H]1[C@](CN1CCC1)(c1cccc(F)c1)C1CCN(CC2(OC)CN(c3ccc(S(=O)(=O)C4CN(C(=O)/C=C/CN(C)C)C4)cc3)C2)CC1
3. C=CC(=O)N1CCC[C@H](S(=O)(=O)c2ccc(N3CC(CN4CCC([C@@](CN5CCC5)(c5cccc(F)c5)[C@H]5CCC[C@@H]5NC(=O)OC)CC4)(OC)C3)cc2)C1
4. C=CC(=O)N1C[C@@H]2C[C@H]1CN2S(=O)(=O)c1ccc(N2CC(CN3CCC([C@@](CN4CCC4)(c4cccc(F)c4)[C@H]4CCC[C@@H]4NC(=O)OC)CC3)(OC)C2)cc1

Reply |
436
2.3
77
10.3

###

So I've got a bunch of compounds here, and I need their Activity values.
target: Menin (Homo sapiens); assay: Binding affinity to recombinant human menin protein assessed as covalent complex formation measured after overnight incubation by LC/MS analysis; parameters: concentration or dose not given beside the values
Numbers only, in %.

Observe how each entry below is paired with its result.
{"columns": ["Molecule smiles", "System under test", "Activity / %"],
 "data": [
  ["C=CC(=O)N1CCC(S(=O)(=O)c2ccc(N3CC(CN4CCC([C@@](CN5CCC5)(c5cccc(F)c5)[C@H]5CCC[C@@H]5NC(=O)OC)CC4)(OC)C3)cc2)CC1", "Menin (Homo sapiens)", 27],
  ["C=CC(=O)N1CC(S(=O)(=O)c2ccc(N3CC(CN4CCC([C@@](CN5CCC5)(c5cccc(F)c5)[C@H]5CCC[C@@H]5NC(=O)OC)CC4)(OC)C3)cc2)C1", "Menin (Homo sapiens)", 81.5]
]}

The record that follows has no Activity shown yet.
Ask | Request body: readout Activity, system Menin (Homo sapiens), query C=CC(=O)N1C[C@@H]2C[C@H]1CN2S(=O)(=O)c1ccc(N2CC(CN3CCC([C@@](CN4CCC4)(c4cccc(F)c4)[C@H]4CCC[C@@H]4NC(=O)OC)CC3)(OC)C2)cc1 . Return the value.
Reply | 100

Every entry's value here was drawn from ChEMBL document CHEMBL5038600.
